Source listed as the supplement of paper PMC4466140.

- target: CaSla1-D3
- test.summary: SPOT peptide array binding signal intensity (averaged, normalized) (arbitrary units (background-subtracted, floor 0; scale differs between SH3 domains)); higher = stronger binding of the SH3 domain to the peptide
Binary classification by SPOT peptide array binding signal intensity, with 10 as an inclusive lower bound for Met; all other cases are Not met.

Below are worked cases with known answers.
{"binder": "ATKSASPTLPTRRSR", "qualitative.label": "Not met"}
{"binder": "RRASLFPRDPKRLRP", "qualitative.label": "Not met"}
{"binder": "APERAVPILPPRNNV", "qualitative.label": "Not met"}
{"binder": "GKKVRPLLVLLLSRA", "qualitative.label": "Met"}
{"binder": "NRPAIRIPSLKKPAL", "qualitative.label": "Not met"}
{"binder": "FTLPPPPPPPGLDEL", "qualitative.label": "Not met"}
{"binder": "DDEDVPPQLPTRTKS", "qualitative.label": "Not met"}
{"binder": "RRRDFGAPANKRPRR", "qualitative.label": "Not met"}
{"binder": "PPIPNAPLSPAPAVP", "qualitative.label": "Not met"}
{"binder": "SSTPTTPERPKRKSG", "qualitative.label": "Not met"}

API: the following record is the query input.
Query block: Check if SPOT peptide array binding signal intensity >= 10 (inclusive). Item: `KFIPSRPAPKPPSSA`
Result block: Met
